Reported IC50 values follow for various compounds
# Tested on: LNCaP cells
# MEASUREMENT DESCRIPTION: Growth response (MTS cell proliferation assay), LNCaP
# Format: cell-based, human
# COND: Homo sapiens, 144 h, MTS assay 6 days after treatment

# COMPOUND, IC50
records = [
    ("Cc1cnc(NC(=O)C2=C(O)c3ccccc3S(=O)(=O)N2C)s1", "193 µM"),
    ("CS(=O)(=O)Nc1ccc([N+](=O)[O-])cc1Oc1ccccc1 [Nimesulide]", "38.2 µM"),
    ("CC(C(=O)O)c1ccc(-c2ccccc2)c(F)c1 (stereo not drawn)", "> 300 µM"),
    ("CC(C(=O)O)c1cccc(Oc2ccccc2)c1 (stereo not drawn)", "> 300 µM"),
    ("CC(C)Cc1ccc(C(C)C(=O)O)cc1 (stereo not drawn)", "> 1000 µM"),
]

[Q] # lookup: IC50 of CC1=C(CC(=O)O)c2cc(F)ccc2/C1=C\c1ccc([S+](C)[O-])cc1 (stereo not drawn)
[A] > 300 µM

[Q] And the next one, COc1ccc2c(c1)c(CC(=O)O)c(C)n2C(=O)c1ccc(Cl)cc1 ?
[A] > 300 µM

[Q] Next entry: CC(C(=O)O)c1cccc(C(=O)c2ccccc2)c1 (stereo not drawn)
[A] > 300 µM

[Q] One more compound: CC(=O)Oc1ccccc1C(=O)O
[A] > 1000 µM
